target: D(3) dopamine receptor (Homo sapiens, UniProt P35462); experiment: Agonist activity at human dopamine D3 receptor expressed in CHO cells assessed as stimulation of [35S]GTPgammaS binding
Sequence (P35462 whole entry): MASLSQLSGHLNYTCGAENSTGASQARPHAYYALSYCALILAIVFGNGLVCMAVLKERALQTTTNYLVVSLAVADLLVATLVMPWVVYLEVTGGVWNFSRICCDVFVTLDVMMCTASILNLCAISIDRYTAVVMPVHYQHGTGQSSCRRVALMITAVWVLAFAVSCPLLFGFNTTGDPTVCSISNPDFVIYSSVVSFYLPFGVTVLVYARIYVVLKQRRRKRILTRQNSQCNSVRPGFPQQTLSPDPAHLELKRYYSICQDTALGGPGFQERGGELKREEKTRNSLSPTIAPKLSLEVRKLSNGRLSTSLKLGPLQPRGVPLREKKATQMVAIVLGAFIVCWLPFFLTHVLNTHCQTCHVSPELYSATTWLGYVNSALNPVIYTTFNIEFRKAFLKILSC
Some compounds, each annotated with its measured EC50.
Use nM as the unit, but write only the number.

{"compound": "CCCN(CCN1CCN(c2ccc(-c3ccccc3)cc2)CC1)C1CCc2c(O)cccc2C1 (single isomer, unassigned; (-))", "EC50, nM": 0.25}

--- query ---
Query string: Given the compound CCCN(CCN1CCN(c2ccc(-c3ccccc3)cc2)CC1)C1CCc2ccc(O)cc2C1 (stereo in doubt; (+)-8a) , what is its reported EC50?
Result string: 1.03
